IC50, p42/Erk2: p44 values by entry
# SYSTEM_NAME: platelet derived growth factor PDGF-BB (UniProt P01127 82-190)
# Sequence (P01127 82-190 limits assumed): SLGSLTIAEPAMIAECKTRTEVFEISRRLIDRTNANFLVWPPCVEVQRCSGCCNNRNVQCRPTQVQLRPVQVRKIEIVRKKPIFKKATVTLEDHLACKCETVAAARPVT
# PROCEDURE_DETAILS: cell-based or functional assay
Positions of bridges follow the written chain, without caps; N, C: chain ends. No end group written: not given here.
All answers are understood in µM, so give the number only.

Below: 3 binders and their reported IC50, p42/Erk2: p44.
Please report the recorded IC50, p42/Erk2: p44 for GDGY (designed binder, linker N-C via 3‑aminomethyl‑5‑aminobenzamide; also: 3 GDGY loops on But-Calix scaffold, CO2H at fourth position) [GFB-133] . 3

Please answer likewise for GFB-135 (designed binder, also: 3 GDGY loops and 1 GDDD loop on But-Calix scaffold, linker to a chain's N/C-terminus via 3-aminomethyl-5-aminobenzamide) peptide 1: GDGY peptide 2: GDDD 24

Please answer likewise for GFB-136 (designed binder, also: 3 GDDD loops and 1 GDGY loop on But-Calix scaffold, linker to a chain's N/C-terminus via 3-aminomethyl-5-aminobenzamide) peptide 1: GDDD peptide 2: GDGY 24

Others:
Please report the recorded IC50, p42/Erk2: p44 for GFB-134 (designed binder, also: 3 GDGY loops and 1 GDDY loop on But-Calix scaffold, linker to a chain's N/C-terminus via 3-aminomethyl-5-aminobenzamide) peptide 1: GDGY peptide 2: GDDY . 2.6
